As a worked illustration, we turn to ΔTm data collected for Mitogen-activated protein kinase 3 (Homo sapiens).
Give the figure together with its unit, number first.

Could you tell me which ΔTm is on file for N#CCCc1ccc2c(c1)-c1[nH]c3ccc([N+](=O)[O-])cc3c1CC(=O)N2 ?
2.2 °C

Look at each compound and report its ΔTm.
1. CC(C)n1cnc2c(NCc3ccccc3)nc(NCCCO)nc21
2. CCCCc1c(-c2ccc(O)cc2)[nH]c2nccnc12

0.4 °C
0.5 °C

Look at each compound and report its ΔTm.
1. CCN(CC)CCNC(=O)c1c(C)[nH]c(/C=C2\C(=O)Nc3ccc(Cl)cc32)c1C
2. O=C1Nc2ccc(I)cc2/C1=C\c1cc(Br)c(O)c(Br)c1
3. C/C(O)=C(\C#N)C(=O)Nc1cc(Br)ccc1Br

["0 °C", "0.5 °C", "0.3 °C"]

Look at each compound and report its ΔTm.
1. CCOC(=O)c1c(C)[nH]c(/C=C2\C(=O)Nc3ccccc32)c1C
2. O=c1c(-c2ccc(F)cc2)c(-c2ccncc2)[nH]n1-c1ccc(Cl)cc1

1: -0.4 °C; 2: 1.2 °C
